B1: DVL3 (parent)
chain: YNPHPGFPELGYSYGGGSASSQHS

- Variants of: B1
- assay_text: protein stability index of a GFP-peptide fusion (GPS, HEK-293T) (PSI 1-6); higher = more stable;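 further: lentivirally expressed fusions sorted by FACS into six bins by GFP to DsRed ratio, PSI derived from sequencing read proportions per bin multiplied by bin number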
- experimental_setup: c terminus: a fixed tail appended
Where protein stability index equals or exceeds 3, the correct label is 1; where it does not, the label is -1.

INSERT INTO measurements (var, classification) VALUES
  ('S18W', -1),
  ('N2K', 1),
  ('P5H', -1),
  ('P8K', -1),
  ('Q22M', -1);

Then there is this variant:
Can S13R be said to have protein stability index at or above 3?
-1
